- target.desc: CYP1A2 (Homo sapiens, UniProt P05177)
- Sequence (P05177 1-516): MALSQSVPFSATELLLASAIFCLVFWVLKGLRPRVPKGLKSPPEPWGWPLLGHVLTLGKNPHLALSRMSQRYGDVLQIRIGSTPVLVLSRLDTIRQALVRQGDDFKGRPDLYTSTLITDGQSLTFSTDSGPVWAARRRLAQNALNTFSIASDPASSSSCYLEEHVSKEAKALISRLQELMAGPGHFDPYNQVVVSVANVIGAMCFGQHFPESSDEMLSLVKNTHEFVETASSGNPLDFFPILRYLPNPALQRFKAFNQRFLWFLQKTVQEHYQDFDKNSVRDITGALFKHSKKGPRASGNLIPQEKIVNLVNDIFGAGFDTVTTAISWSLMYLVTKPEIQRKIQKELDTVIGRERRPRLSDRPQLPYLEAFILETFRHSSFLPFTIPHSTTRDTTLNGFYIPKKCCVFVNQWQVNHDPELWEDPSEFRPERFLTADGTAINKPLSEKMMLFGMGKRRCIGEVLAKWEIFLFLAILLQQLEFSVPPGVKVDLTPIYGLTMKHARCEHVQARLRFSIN
- test.context: recombinant enzyme
property.measured: IC50

IC50 for "COCC[C@H]1CC2CN3CCc4c([nH]c5ccccc45)[C@](C(=O)OC)(C2)[C@H]13" ?
> 100 µM
